Data origin: ChEMBL document CHEMBL1132302

- test-summary: Maximum concentration (Cmax) using 0.4% Methyl cellulose (MC) as vehicle. compound was administered orally to nude mice at a dose of 25 mg/kg
- Assay type: ADME, organism-based
- Set-up: dose 25 mg/kg, route oral
- measurement-conditions: mouse, in vivo, po
observable: Cmax (nM)

Reference set, count: 2
1) O=C(CC1CCN(C(=O)c2ccc[n+]([O-])c2)CC1)N1CCC([C@H]2c3ncc(Br)cc3CCc3cc(Cl)cc(Br)c32)CC1    750
2) NC(=O)N1CCC(CC(=O)N2CCC([C@H]3c4ncc(Br)cc4CCc4cc(Cl)cc(Br)c43)CC2)CC1    16600

(a) O=C(CC1CCN(C(=O)c2cc[n+]([O-])cc2)CC1)N1CCC([C@H]2c3ncc(Br)cc3CCc3cc(Cl)cc(Br)c32)CC1
(b) N#CCC(=O)N1CCC(CC(=O)N2CCC([C@H]3c4ncc(Br)cc4CCc4cc(Cl)cc(Br)c43)CC2)CC1
Enquiry: Between these two entries, a and b , state which has the higher Cmax. The response must carry the label of the picked entry.
Return: a

====

- tested-on: Protein farnesyltransferase (Homo sapiens, UniProt P49354+P49356)
- test-summary: Inhibition of Hras Farnesyl protein transferase (FPT)
- Assay type: protein-complex assay
observable: pIC50
pIC50 is a log-scale quantity: -log10 of the concentration expressed in molar.

Enquiry: What pIC50 value was documented for this compound, O=C(CC1CCN(C(=O)c2ccc[n+]([O-])c2)CC1)N1CCC([C@H]2c3ncc(Br)cc3CCc3cc(Cl)cc(Br)c32)CC1 ?
Return: 8.68

====

- test-summary: Bioavailability in mouse (nude) using 20% aqueous hydroxypropyl-beta-cyclodextrin (HPbetaCD) as vehicle 25 mg/kg
- Format: ADME, organism-based
- measurement-conditions: nude, in vivo
observable: bioavailability (%)

1) O=C(CC1CCN(C(=O)Cn2cncn2)CC1)N1CCC([C@H]2c3ncc(Br)cc3CCc3cc(Cl)cc(Br)c32)CC1    19.5
2) O=C(CC1CCN(C(=O)c2ccc[n+]([O-])c2)CC1)N1CCC([C@H]2c3ncc(Br)cc3CCc3cc(Cl)cc(Br)c32)CC1    113

(a) CN(C)S(=O)(=O)N1CCC(CC(=O)N2CCC([C@H]3c4ncc(Br)cc4CCc4cc(Cl)cc(Br)c43)CC2)CC1
(b) CN(C)C(=O)C(=O)N1CCC(CC(=O)N2CCC([C@H]3c4ncc(Br)cc4CCc4cc(Cl)cc(Br)c43)CC2)CC1
Enquiry: Field: entry with larger bioavailability (options a / b ). Which one? Tell me its label.
Return: b

(1) NC(=O)CN1CCC(CC(=O)N2CCC([C@H]3c4ncc(Br)cc4CCc4cc(Cl)cc(Br)c43)CC2)CC1
(2) O=C(CC1CCN(C(=O)c2cc[n+]([O-])cc2)CC1)N1CCC([C@H]2c3ncc(Br)cc3CCc3cc(Cl)cc(Br)c32)CC1
Enquiry: Pick one: 1 or 2 . Which one has the lower reported bioavailability? // respond with label for picked entry
Return: 1
(1: 60.2%, 2: 115%)

====

- test-summary: Area under curve was determined using 0.4% Methyl cellulose (MC) as vehicle. Compound was administered orally to nude mice at a dose of 25 mg/kg
- Type: ADME, organism-based
- Design: dose 25 mg/kg, route oral
- measurement-conditions: mouse, in vivo, po
observable: AUC (ng·h/mL)

1. NC(=O)N1CCC(CC(=O)N2CCC([C@H]3c4ncc(Br)cc4CCc4cc(Cl)cc(Br)c43)CC2)CC1    41400

(a) O=C(CC1CCN(C(=O)c2cc[n+]([O-])cc2)CC1)N1CCC([C@H]2c3ncc(Br)cc3CCc3cc(Cl)cc(Br)c32)CC1
(b) N#CCC(=O)N1CCC(CC(=O)N2CCC([C@H]3c4ncc(Br)cc4CCc4cc(Cl)cc(Br)c43)CC2)CC1
(c) O=C(CC1CCN(C(=O)c2ccc[n+]([O-])c2)CC1)N1CCC([C@H]2c3ncc(Br)cc3CCc3cc(Cl)cc(Br)c32)CC1
Enquiry: In this exercise, place the 3 molecules in ascending sequence of their recorded AUC. Form field (ranking): labels in requested order.
Return: b, a, c
(b: 350 ng·h/mL, a: 2000 ng·h/mL, c: 3600 ng·h/mL)
